# Tested on: NCI-H522 lung
# Assay comment: NCI tumour cell line growth inhibition, 48 h; in the data active means GI50 below about 0.43 µM; inactive means the rest
Outcome codes: Yes = active, No = inactive

- Compound: "COc1cccc(C2C3=C(COC3=O)N(CCO)c3cc4c(cc32)OCCO4)c1 (centres undefined)"
  Label class: "Yes"
- Compound: "O=C1c2ccccc2-c2c1c1ccccc1c(=O)n2CCCN1CCN(CCCn2c3c(c4ccccc4c2=O)C(=O)c2ccccc2-3)CC1"
  Label class: "No"
- Compound: "Oc1cc(O)c2c(=S)cc(-c3ccc(Cl)cc3)oc2c1"
  Label class: "No"
- Compound: "N#Cc1cccc(NC(=O)c2oc3ccccc3c2-c2cnn(-c3ccccc3)c2)c1"
  Label class: "No"
- Compound: "CCOc1ccc(/C=C/[N+](=O)[O-])cc1"
  Label class: "No"
- Compound: "CN(C)CCCNc1nccc(-c2c(-c3ccc(F)cc3)nn3cc(C(F)(F)F)ccc23)n1"
  Label class: "No"
- Compound: "Clc1ccc(-c2nn3ncccc3c2-c2ccnc(Nc3ccccc3)n2)cc1"
  Label class: "No"
- Compound: "O=C(c1cccs1)c1c(C(F)(F)F)n([O-])c2ccc(F)cc2[n+]1=O"
  Label class: "No"
- Compound: "CC1=C(/C=C/C(C)=C/C=C/C(C)=C/C(=O)Nc2ccc(O)cc2)C(C)(C)CCC1"
  Label class: "Yes"
- Compound: "CCCN(CCC)CCCNC(=O)c1cc2c(-c3ccc(OC)c(OC)c3)nn(C)c2s1"
  Label class: "No"
- Compound: "COC(=O)[C@H](CC(C)C)NC(=O)NC(=O)NC(=O)CI"
  Label class: "No"
- Compound: "COc1ccc(-c2cc(/C=C3\\C(=O)Nc4ccc(OC)cc43)[nH]n2)cc1"
  Label class: "No"
- Compound: "CNc1ccc(-c2cc(=O)oc3ccc(Cl)cc23)cc1"
  Label class: "Yes"
- Compound: "COc1c(CNC(=O)CCl)cc2[nH]c(C)cc2c1CNC(=O)CCl"
  Label class: "No"

###

# System: SW-620 colon
# Assay comment: NCI tumour cell line growth inhibition, 48 h
Where a SMILES comes first, the peptide text is derived from it. [ ]: non-standard residue; d: D form. The star is where a group is joined. ξ: configuration not given here. NMeF = CN[C@@H](Cc1ccccc1)C(=O)O; ξNMeV = CNC(C(=O)O)C(C)C; Boc = CC(C)(C)OC(=O)*; OBn = c1ccc(CO*)cc1
Examples of compounds with documented TGI follow.

- Compound: "Cc1ccc(/C(=C/C=C(C#N)C#N)Sc2cc(Cl)ccc2Cl)cc1"
  TGI: "22.5 µM"
- Compound: "NC(=S)N1N=C2c3ccccc3CC[C@H]2[C@@H]1c1cccs1"
  TGI: "> 100 µM"
- Compound: "CCOc1ccc(/C=C/[N+](=O)[O-])cc1"
  TGI: "11.9 µM"
- Compound: "COc1ccc(/C=N/NC(=O)NCCCN(C)C)cc1"
  TGI: "> 100 µM"
- Compound: "O=C(/C=C(\\Nc1ccccc1O)c1ccccc1)C(=O)NC12CC3CC(CC(C3)C1)C2"
  TGI: "> 10 µM"
- Compound: "CC(=O)OC1CC2(c3ccccc3)C(=O)c3ccccc3N2O1 (stereo unspecified)"
  TGI: "> 100 µM"
- Compound: "Nc1ccccc1NC(=O)c1ccc(CN2CCC/C(=C\\c3cccc(Cl)c3)C2=O)cc1"
  TGI: "> 100 µM"
- Compound: "COc1cc2c3c(n(CCN(C)C)c(=O)c2cc1OC)-c1cc2c(cc1C3=O)OCO2"
  TGI: "> 100 µM"
- Compound: "CO/N=C1/c2sccc2[C@H](NC(=O)C(F)(F)F)[C@@H]1O"
  TGI: "> 100 µM"
- Compound: "Cc1ccc(S(=O)(=O)Oc2ccc(OS(=O)(=O)c3ccc(C)cc3)c3c2C(=O)c2ccccc2C3=O)cc1"
  TGI: "> 100 µM"
- Compound: "CC(C)N=C(NC#N)NS(=O)(=O)c1cnccc1Nc1ccc(Cl)cc1"
  TGI: "> 100 µM"
- Compound: "Cn1cc(C[C@@H](N)C(=O)O)c2ccccc21"
  TGI: "> 100 µM"
- Compound: "O=C1/C(=C\\c2coc3ccccc3c2=O)c2ccccc2N1c1c(Cl)cccc1Cl"
  TGI: "> 100 µM"
- Compound: "CN1C2C=C(c3ccccc3)CC1CC2 (stereo unspecified)"
  TGI: "> 100 µM"
- Compound: "CC(=O)OC(C)(C)N=Nc1ccc(Br)cc1"
  TGI: "> 100 µM"
- Compound: "COc1cc([C@@H]2c3cc4c(cc3[C@@H](O[C@@H]3O[C@@H]5CO[C@@H](c6cccs6)O[C@H]5[C@H](O)[C@H]3O)[C@H]3COC(=O)[C@H]23)OCO4)cc(OC)c1O"
  TGI: "> 46.1 µM"
- Compound: "CCCCNC(=O)Nc1c(C(N)=O)c2n(c1C(=O)OCC)CCCCC2"
  TGI: "> 100 µM"
- Compound: "CCOC(=O)C(=O)N=Nc1nc2c(O)c3ccccc3c(O)c2s1"
  TGI: "5.7 µM"
- Compound: "O=C(Nc1ccc(Cl)cc1)/C(Cc1cccc[n+]1[O-])=N\\Nc1ccc([N+](=O)[O-])cc1[N+](=O)[O-]"
  TGI: "> 100 µM"
- Compound: "Nc1ncnc2c1ncn2C1CCC(CO)O1 (stereo unspecified)"
  TGI: "> 100 µM"
- Compound: "C=C1CCC2C3(C)COC(c4ccc(SC)cc4)OC3CCC2(C)C1C/C=C1/C(=O)OCC1O (stereo unspecified)"
  TGI: "3.66 µM"
- Compound: "CCOC(=O)C1=C(C)NC2SC(=O)/C(=C\\c3ccccc3)N2C1c1ccccc1 (stereo unspecified)"
  TGI: "> 100 µM"
- Compound: "CC(C)C(C(=O)N1CCC[C@@H]1C(=O)OCc1ccccc1)N(C)C(=O)C(C(C)C)N(C)C(=O)[C@H](Cc1ccccc1)N(C)C(=O)[C@H](NC(=O)OC(C)(C)C)C(C)C (stereo partly specified) (Boc-[dV][NMeF][ξNMeV][ξNMeV][dP]-OBn)"
  TGI: "> 100 µM"
- Compound: "Cc1cc2c(cc1C)[n+](=O)c(C(=O)N1CCN(c3ccc([N+](=O)[O-])cc3)CC1)c(C)n2[O-]"
  TGI: "> 100 µM"
- Compound: "OC(COc1cccc2ccccc12)CN1CCN(c2ccccc2)CC1 (stereo unspecified)"
  TGI: "30.1 µM"
- Compound: "CN(C)CCNC(=O)c1cccc2nc3cccc(F)c3nc12"
  TGI: "5.82 µM"
- Compound: "CN(C)c1ccc(/C=C(\\NC(=O)c2ccccc2)C(=O)Nc2ccccc2C(=O)O)cc1"
  TGI: "> 100 µM"
- Compound: "Cc1ccc(CS(=O)(=O)C/N=c2\\sc3ccccc3nc2/C=C(\\O)c2ccc(Cl)cc2)cc1"
  TGI: "> 10 µM"
- Compound: "CC(=O)[O-].CC(=O)[O-].[NH2-].[Pt+2].c1ccncc1"
  TGI: "> 100 µM"
- Compound: "c1ccc2c(c1)nc1n2CSC1"
  TGI: "> 100 µM"
- Compound: "N#Cc1c(-c2ccccc2)cc(-c2ccccc2)n(CCCCC(=O)NO)c1=O"
  TGI: "11.9 µM"
- Compound: "COC(=O)c1ccc([N+](=O)[O-])c(O)c1"
  TGI: "> 100 µM"
- Compound: "CCOc1ccc2c(ccc(/C=C\\c3cc(C)c4cccnc4c3O)[n+]2C)c1"
  TGI: "28 µM"
- Compound: "CCOC(=O)c1cccc([N+](=O)[O-])c1N"
  TGI: "> 100 µM"
- Compound: "COc1cc2cc[n+]3c4cc(OC)c(OC)cc4c(C)cc3c2cc1OC"
  TGI: "> 100 µM"
- Compound: "Clc1ccc(OC2CCO2)cc1Cl (stereo unspecified)"
  TGI: "33.6 µM"

###

# Tested on: LOX IMVI melanoma
# Assay comment: NCI tumour cell line growth inhibition, 48 h
Here the recorded TGI is given for each entry.

- Compound: "COc1ccc2c(c1)nc1n2C(c2c(F)cccc2Cl)SC1 (stereo not drawn)"
  TGI: "> 61.6 µM"
- Compound: "[C-]#[O+].[Cl][Sn]([Cl])[Cl].[Cl][Sn]([Cl])[Cl].[Pt].c1ccncc1"
  TGI: "> 31.6 µM"
- Compound: "NCC1OC(OC2C(CO)OC(OC3C(O)C(N)CC(N)C3OC3OC(CO)C(O)C(O)C3N)C2O)C(N)C(O)C1O (stereo not drawn)"
  TGI: "> 50 µg/mL"

###

# Test system: OVCAR-3 ovarian
# Assay comment: NCI tumour cell line growth inhibition, 48 h
Assay metric: TGI

- Smiles input: "COc1ccc(-c2cc(/C=C3\\C(=O)Nc4ccc(OC)cc43)[nH]n2)cc1"
  Assay metric: "TGI"
  Recorded result: "> 100 µM"
- Smiles input: "Cc1ccc(/C(=C/C=C(C#N)C#N)Sc2cc(Cl)ccc2Cl)cc1"
  Assay metric: "TGI"
  Recorded result: "11.8 µM"
- Smiles input: "O=C1c2ccccc2-c2c1c1ccccc1c(=O)n2CCCN1CCN(CCCn2c3c(c4ccccc4c2=O)C(=O)c2ccccc2-3)CC1"
  Assay metric: "TGI"
  Recorded result: "> 100 µM"
